Assay method text: soluble fraction after stress (log2 fold change); higher = more stays soluble; pooled small domains, quantitative proteomics;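 further: 20 min heating vs room temperature control held 20 min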
Assay setup: stress: 75 degC
Would you kindly list soluble fraction (log2) for each of these sequences?
Give the value as a plain number.

For the sequence `HMFDKVSVNNLAEAIGRLDGIYQDVLRLYYVHELPSKEIGKILNINHLTVNTRLKRAREKLFKMLKEE` , give its reported soluble fraction (log2).
-3.11

For the sequence `HMSKKMLASIFDTISGIGKKRLKKIWDNYTSLNELKDDSLENIYAKTQIPINLITKIKEKLE` , give its reported soluble fraction (log2).
-0.913

For the sequence `HMGDLTVPDLSGLTVDQAKQRLKDMGLVLGKITTQEDSSKPDGVIISQSPSADGKINKGQLVDVVVNKLS` , give its reported soluble fraction (log2).
0.034

For the sequence `HMERPKSLRELALEHLRNSIIDGSLKMGQVLSERKISEELGVSKSPVREALAQLRDEGLVSIEPQKGARV` , give its reported soluble fraction (log2).
0.14

---

Would you kindly list soluble fraction (log2) for each of these sequences?
Assay method text: soluble fraction after stress (log2 fold change); higher = more stays soluble; pooled small domains, quantitative proteomics
Assay setup: stress: 75 degC
Give the value as a plain number.

For the sequence `HMSDPDPAEQALLRQFMTRYAAYRRRGQHPAGAFRTASLEVFGQEPSGDLRDVIVDLESGLV` , give its reported soluble fraction (log2).
-0.234

For the sequence `HMGTRTILGIDPGSRKTGFGIIRLDGSRTHYVSSGVIRIPDTALPERLKIIFASLNEIIQQFQPQEV` , give its reported soluble fraction (log2).
-0.339

For the sequence `HMVEMIGLQMVGKSGIASTVLRPSGKVRIDGVVYDAVSEDGFIEKGQAVKVLRYETGQVYVEKL` , give its reported soluble fraction (log2).
-0.727

For the sequence `HMNFMDGFQSFFQESGAMNRPMTADVVSYRLPDGTVQQGNSTMRGLMDQYLKSIGQSPTTGVP` , give its reported soluble fraction (log2).
0.0171

For the sequence `HMDKTTIKNEQKKQILIFAEMNLFFKAKDVAELLGLQASRARYLLQELVKDGKIQGIGNNKGRKYQLI` , give its reported soluble fraction (log2).
-0.729

For the sequence `HMGGEPVSARVPDTLHGARLDATAAALFPDFSRSRLAEWIKAGRLRRNDQPAKPRDKVAVDDHLLLIPEY` , give its reported soluble fraction (log2).
0.0937

For the sequence `HMIMGTITKRTNPSGAIVYRAQIRIKKAGYPDFSESRTFSKKAMAVEWLKLREAELEMHPELLFR` , give its reported soluble fraction (log2).
-2.35

For the sequence `HMSTPLVATLRKRIIDGHYPPGERLAEIPVAEAFGVSRTPVRLAFRTLEQEGLLEKAGKRGYAVRA` , give its reported soluble fraction (log2).
-0.164

For the sequence `HMEQVVFNGTGRRKSSIARVRIMSGKGNITVNGKALDEYFGEETLKVIVRQPLTVTDTLDKYDVIATVK` , give its reported soluble fraction (log2).
0.0911

For the sequence `HMEDSEYDRLLAEIDEGIRKAIETLEPVELSPQNARVRRIQHQIIEKYQLHSDSVGEEPYRRVRIL` , give its reported soluble fraction (log2).
-0.596

For the sequence `HMESSNLESQLKKGIVPNLNGLSAKDALFLLENSGFNVKLYGMGSVKKQSLEAGKKYNKGDKITLIL` , give its reported soluble fraction (log2).
0.151

For the sequence `HMETLEDHRKKTRQQLFDALSHLLQTSTFESLTMAKIAEEAGVGRTAVYNHFQDKEALLLAFITYETGQ` , give its reported soluble fraction (log2).
-1.74

For the sequence `HMGTSFKITFYKDAFQVDDGPIRMLNDPANQKFVDEVSQGYAPKELIGQGGKAPEIDIIDKRSENAPT` , give its reported soluble fraction (log2).
0.156

For the sequence `HMNMRVLSEQPNKKSYQDGNLRLKVFGASFKKSDILNEALNQARVEETGLQIPKLLEVKQIDGQWTIVTE` , give its reported soluble fraction (log2).
-0.0583

For the sequence `HMRLPLYLALAQTLRQEIDAKQYKIGAHLPPEDQLVVKYGVSRHTVRQALQELKNEGLITSKAGIGTIVSS` , give its reported soluble fraction (log2).
-1.56

For the sequence `HMSNWTILIIQGSAHLIDLDSKITEIDGFGSFPTKILQDYNLNEEFEIFDTNVKMVNSVQSDLQSN` , give its reported soluble fraction (log2).
-2.48

For the sequence `HMVRSEDLIGLQGRITLATDVETRGFVELSVKGSLLRRPALSLKGPLAKNTAVVVTASNDHTLEVEAL` , give its reported soluble fraction (log2).
-0.985

---

Assay method text: soluble fraction after stress (log2 fold change); higher = more stays soluble; pooled small domains, quantitative proteomics
Assay setup: stress: 75 degC
Would you kindly list soluble fraction (log2) for each of these sequences?

For the sequence `HMKKDDLKQINGIGTTIEKKLNEIDIYNFYQISNLSKEDIETISEKIKTFPGKIERDNWVGQAQELL` , give its reported soluble fraction (log2).
0.0235

For the sequence `HMKLTTRQTEIINIVKAEQPISGEKIAQNLGLSRATLRNDLSILTMTGLLDAKPKVGYFYTGQ` , give its reported soluble fraction (log2).
-0.976

For the sequence `HMDKLFNRQTLGGVELTQKQIEDLNAGKAIFVEGMQRKDGEVFSSYVKLDEATGRPSYTRYNPDSP` , give its reported soluble fraction (log2).
0.933

For the sequence `HMTALPPNVSIDSDERRLLEAIGFDPVDMDVLARDGQFSSVDLFRLLVSLELKGLVENQHGAYQRL` , give its reported soluble fraction (log2).
-1.85

---

Assay method text: soluble fraction after stress (log2 fold change); higher = more stays soluble; pooled small domains, quantitative proteomics
Assay setup: stress: 75 degC
Measured parameter: soluble fraction (log2)

For the sequence `HMDFFVLVGAYKTPDEAETIRAKIAFSGLDSSVSHGNDGRYRVRIGPFHSEGDARKAQSTLRANDIPGQII` , give its reported soluble fraction (log2).
-1.01

For the sequence `HMKTLKHYFASIAHEFGREEAELMLLSVFKTPFEQRLMLFMKDPALTEAQVQQLDNLVRQRKQGVPLPYIL` , give its reported soluble fraction (log2).
-2.68

For the sequence `HMSWEQELIEKANEIIDLYPEKRSALGPLLYLAQERDGYISDESIVEISNLVGITEVQVKSVASFYSMYK` , give its reported soluble fraction (log2).
-3.62

For the sequence `HMEKYIVEAEEQGKRLDMYISSKDEELTRTSAQRLIEQGDILVNNKKVKVAYKVSEGDIIAVEKQ` , give its reported soluble fraction (log2).
-0.0711

---

Assay method text: soluble fraction after stress (log2 fold change); higher = more stays soluble; pooled small domains, quantitative proteomics
Assay setup: stress: 75 degC
Measured parameter: soluble fraction (log2)
Give the value as a plain number.

For the sequence `HMTPTNILIVEDEKEIRRFVRTALESEGLRVFESETLQRGLIEAGTRKPDLIILDLGLPDGDGLSYIRDLR` , give its reported soluble fraction (log2).
-0.0383

For the sequence `HMLDVGDQLVKKLKDNDSLDFHFVNSKEANKGLKDGDYYMVITIPSNFSKNATTLLDKNPKKMVLNYTTNP` , give its reported soluble fraction (log2).
-0.0273

For the sequence `HMENQFNDWSLTPSEKEVALFMLKGLSTQEIAAARNTKEKTVRQQASAVYAKSQLDGRYALAAWFFEDI` , give its reported soluble fraction (log2).
-0.702

For the sequence `HMEAEQLEAIRSALQQLSDMNRTVFNLHVVDGYKHEEIAAMLNITTGTSKAHLHRAKKRLRELID` , give its reported soluble fraction (log2).
-1.04

For the sequence `HMARIDYHAMDSDDLSFSEGELLEIYDKPGSFWWKGRSLVSGDEGDIPS` , give its reported soluble fraction (log2).
-0.0708

For the sequence `HMRISKRQLILESAAAIINEKGADYLTLDAVAQRAGISKGGLFYHFKSKDELIKELVNYANN` , give its reported soluble fraction (log2).
-1.56

For the sequence `HMQENKVLEGKVLEKKKKKVFVDLSPFGVGVIRGVNYLEAKNELKDIEEGDNIKVRVLEIDNENGFIELAL` , give its reported soluble fraction (log2).
-0.121

For the sequence `HMKTMEQSYIGRKIILDENVEDSALIKFEGIYWTFKSVSGPLKKGTEVEIIGIEGNKILIKNK` , give its reported soluble fraction (log2).
-0.988

---

Assay method text: soluble fraction after stress (log2 fold change); higher = more stays soluble; pooled small domains, quantitative proteomics
Assay setup: stress: 75 degC
Measured parameter: soluble fraction (log2)

For the sequence `HMEIETPEIRAIHDLLELLANKAKKPEQEQFVQAHPEVQWAKVEANKNGTFAVGKVKAYLKTLQA` , give its reported soluble fraction (log2).
-0.39

For the sequence `HMNILNYIIENENQEVRVDKFLSDTIEDMSRSSVASIIEDGGLLVNDKLQNKKYKLKIGDKVQFTVPDPV` , give its reported soluble fraction (log2).
0.0982

For the sequence `HMADLVYLRKRLQDAIAQLPEDMRTAYTLFQIARRSIREIAELTGASESLVKVRIHRAKGKLQELLEDLR` , give its reported soluble fraction (log2).
-2.57

For the sequence `HMTIFGWQTDETGKWYRNADGTFFEAGWKEIDGAKYYFDENGYVKTGWLELDGKDYYFDEEGRYDSSKVR` , give its reported soluble fraction (log2).
0.299
